Kindly supply the reported activity change, negative = inhibition values for the records listed here.
Experiment: DUX4 transcriptional activity inhibition in cells – 293T cells, Gaussia and Italica luciferase, primary screen (AID 1224904);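 note: 0% = median of neutral control wells and -100% = median of positive control wells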
Settings: 293T-iDUX4 ZSCAN4-Gaussia luciferase reporter, 24 h; stronger effect = lower value; concentration not given here
In all, about 37,000 compounds went through this assay and about 290 (0.78%) were called active. About 10% were inconclusive and are not listed. The list comes from a sample in which actives are over-represented; it also holds close analogues and randomly drawn compounds.
Give your result in % as a bare value.

For record CN1c2ccc(Br)cc2[C@@H]2[C@@H](CCN2C(=O)Cc2ccccc2)[C@@H]1CO the listed activity change, negative = inhibition is 6.02

For record O=C(Cc1ccccc1)N1C[C@H]2[C@@H](c3ccccc31)[C@H](CO)N2C(=O)C1CCOCC1 the listed activity change, negative = inhibition is -0.397

For record COCC(=O)Nc1ccc2c(c1)C(=O)N(C)[C@@H]1CC[C@@H](CC(=O)NCCCN(C)C)O[C@@H]1CO2 the listed activity change, negative = inhibition is -2.75

For record O=C(Cc1ccccc1)N1C[C@@H]2[C@H](c3ccccc31)[C@@H](CO)N2C(=O)C1CCOCC1 the listed activity change, negative = inhibition is 1

For record CC(C)[C@@H]1COCc2cnnn2CCC[C@H](C)C(=O)N1 the listed activity change, negative = inhibition is -1.36

* * *

Test: DUX4 transcriptional activity inhibition in cells – 293T cells, Gaussia and Italica luciferase, primary screen (AID 1224904);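 note: 0% = median of neutral control wells and -100% = median of positive control wells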
Conditions: 293T-iDUX4 ZSCAN4-Gaussia luciferase reporter, 24 h; stronger effect = lower value; concentration not given here
The whole screen tested about 37,000 compounds, of which about 290 (0.78%) were called active. About 10% were inconclusive and are not listed. Shown is part of a subset that was picked to be rich in actives.
measurementName: activity change, negative = inhibition (%)
Give your result in % as a bare value.

For record COc1ccccc1C#Cc1cnc2c(c1)C(=O)N([C@@H](C)CO)C[C@@H](C)[C@H](CN(C)C(=O)CN(C)C)O2 the listed activity change, negative = inhibition is -1.64

For record CCCNC(=O)[C@@H]1[C@@H](CO)[C@@H]2Cn3c(cccc3=O)[C@H]1N2C(=O)Nc1cc(F)ccc1F the listed activity change, negative = inhibition is 6.78

For record O=C(C[C@@H]1CC[C@@H]2[C@H](COC[C@H](O)CN2S(=O)(=O)c2ccc(F)cc2)O1)NCc1ccc(Cl)c(Cl)c1 the listed activity change, negative = inhibition is -7.18

For record CC=Cc1ccc2n(c1=O)C[C@@H]1[C@@H](CO)[C@H](C(=O)NCCC)[C@H]2N1C(=O)C1CC1 (mixture of isomers) the listed activity change, negative = inhibition is 3.79

For record CN(C)C(=O)c1cccc(-c2ccc3c(c2)[C@H]2[C@H](CCN2C(=O)c2cccnc2)[C@H](CO)N3)c1 the listed activity change, negative = inhibition is -0.714

For record O=C(c1ccncc1)N1CC2(C1)[C@@H](c1ccccc1)[C@H](CO)N2C(=O)c1ccncc1 the listed activity change, negative = inhibition is 9.03

For record O=C(CC(F)(F)F)N1C[C@H]2[C@@H](c3ccccc31)[C@H](CO)N2C(=O)Cc1cccnc1 the listed activity change, negative = inhibition is 2.67

For record O=C(C[C@@H]1CC[C@H]2[C@@H](COC[C@H](O)CN2C(=O)Nc2ccccc2)O1)NCCc1ccncc1 the listed activity change, negative = inhibition is -0.33

For record COCC(=O)Nc1ccc2c(c1)OC[C@@H](C)N(C(=O)CC1CC1)C[C@@H](C)[C@@H](OC)CN(C)C2=O the listed activity change, negative = inhibition is -1.74

For record CN(C)C(=O)c1cccc(-c2ccc(C3[C@@H]4CN(S(=O)(=O)c5ccc(F)cc5)C[C@H]3N4)cc2)c1 (stereo partly specified) the listed activity change, negative = inhibition is -0.156

For record COc1ccccc1S(=O)(=O)N1CC[C@H]2[C@@H](CO)N(C)c3ccc(C#Cc4ccccc4)cc3[C@H]21 the listed activity change, negative = inhibition is 8.89

For record CCNC(=O)[C@H]1[C@H](CO)[C@H]2Cn3c(ccc(-c4ccc(OC)cc4)c3=O)[C@H]2N1Cc1ccccc1 the listed activity change, negative = inhibition is -4.11

For record COc1cc(CN2CC3(CN(S(=O)(=O)c4cn(C)cn4)C3)c3c(n(C)c4cc(OC)ccc34)[C@H]2CO)cc(OC)c1 the listed activity change, negative = inhibition is -2.88

For record C[C@H](CO)N1C[C@H](C)[C@@H](CN(C)Cc2ccncc2)OCCCC[C@H](C)Oc2ccc(NS(=O)(=O)c3ccc(Cl)cc3)cc2C1=O the listed activity change, negative = inhibition is 1.79

For record C[C@H](O)C#Cc1ccc([C@@H]2[C@H](CO)N3CCCCN(CC4CC4)C[C@@H]23)cc1 the listed activity change, negative = inhibition is 4.25

For record COc1cccc(CN2[C@H](CO)[C@@H]3c4ccccc4N(C(=O)c4ccncc4)C[C@@H]32)c1 the listed activity change, negative = inhibition is -3.19

* * *

Kindly supply the reported activity change, negative = inhibition values for the records listed here.
Assay: DUX4 transcriptional activity inhibition in cells – 293T cells, Gaussia and Italica luciferase, primary screen (AID 1224904);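 note: 0% = median of neutral control wells and -100% = median of positive control wells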
Conditions: 293T-iDUX4 ZSCAN4-Gaussia luciferase reporter, 24 h; stronger effect = lower value; concentration not given here
The campaign covered roughly 37,000 compounds. About 290 (0.78%) were called active. Not shown: some 10% with an inconclusive outcome. Shown is part of a subset that was picked to be rich in actives.
Give your result in % as a bare value.

For record CCC(=O)N1C[C@@H](C)[C@H](OC)CN(C)C(=O)c2cc(NC(=O)c3cc(C)on3)ccc2OC[C@@H]1C the listed activity change, negative = inhibition is -1.43

For record CO[C@H]1CN(C)C(=O)c2ccc(NC(=O)c3cccc(F)c3)cc2OC[C@@H](C)N(C(C)=O)C[C@@H]1C the listed activity change, negative = inhibition is 1.79

For record CCNC[C@@H]1[C@@H](c2ccccc2)[C@@H](CO)N1C(=O)Cc1ccccn1 the listed activity change, negative = inhibition is -0.0686

For record O=C(CC1CC1)Nc1ccc2c(c1)[C@@H]1C[C@@H](CC(=O)NC3CCCCC3)O[C@H](CO)[C@@H]1O2 the listed activity change, negative = inhibition is 5.02

For record Cc1ccc(S(=O)(=O)N(C)C[C@H]2OCc3ccccc3-c3ccccc3C(=O)N([C@@H](C)CO)C[C@@H]2C)cc1 the listed activity change, negative = inhibition is 10.1

For record COCC(=O)N[C@@H]1C=C[C@@H](CC(=O)N2CCCCC2)O[C@@H]1CO the listed activity change, negative = inhibition is 6.06

For record Cc1ccccc1-c1ccc([C@H]2[C@H](CO)N3C(=O)CN(C(=O)c4cccnc4)C[C@@H]23)cc1 the listed activity change, negative = inhibition is 6.89

For record COc1cccc(-c2ccc([C@@H]3[C@@H](CO)N(C(=O)c4ccccn4)[C@H]3C#N)cc2)c1 the listed activity change, negative = inhibition is 5.81

* * *

Test: DUX4 transcriptional activity inhibition in cells – 293T cells, Gaussia and Italica luciferase, primary screen (AID 1224904);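 note: 0% = median of neutral control wells and -100% = median of positive control wells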
Conditions: 293T-iDUX4 ZSCAN4-Gaussia luciferase reporter, 24 h; measured here: Italica tet-on control reporter; stronger effect = lower value; concentration not given here
Screen size: about 37,000 compounds; about 290 (0.78%) were called active. About 10% were inconclusive and are not listed. What follows is part of a selection rich in actives, with near analogues and random picks from the rest.
measurementName: activity change, negative = inhibition (%)
Give your result in % as a bare value.

For record C[C@H]1CN([C@@H](C)CO)S(=O)(=O)c2ccc(-c3ccncc3)cc2O[C@H]1CN(C)S(C)(=O)=O the listed activity change, negative = inhibition is 4.8

For record COc1ccc(S(=O)(=O)N2CC[C@@H]3[C@@H](CO)Nc4ccc(C#Cc5cccnc5)cc4[C@@H]32)cc1 the listed activity change, negative = inhibition is -7.96

For record COc1ccccc1CN1CC[C@@H]2[C@@H](CO)Nc3ccc(C#Cc4ccccc4)cc3[C@@H]21 the listed activity change, negative = inhibition is 16

For record CCCN1[C@H](C(=O)N2CCCCC2)[C@@H](CO)[C@@H]2Cn3c(ccc(-c4ccccc4F)c3=O)[C@@H]21 the listed activity change, negative = inhibition is -0.135

For record CCC(=O)N1[C@H](C(=O)NCc2ccc(F)cc2)[C@@H](CO)[C@@H]2Cn3c(ccc(C4=CCCCC4)c3=O)[C@@H]21 the listed activity change, negative = inhibition is -5.8

For record COc1ccc(C#Cc2ccc3c(c2)[C@H]2[C@H](CCN2Cc2nccs2)[C@@H](CO)N3)cc1 the listed activity change, negative = inhibition is -18.3

For record CC(C)[C@@H]1COCn2nncc2CCCC(=O)N1 the listed activity change, negative = inhibition is 7.14

For record CCC(=O)N1C[C@@H](C)[C@H](OC)CN(C)C(=O)c2cc(NC(=O)c3cc(C)on3)ccc2OC[C@@H]1C the listed activity change, negative = inhibition is 2.42
